Test: Solvent solubility screen
Assay type: physicochemical
Settings: water, 40 °C, water, thermodynamic from solid; read-out: Approx. Solubility
metric.name: solubility

O=C(O)c1cc(/N=N/c2ccc(S(=O)(=O)Nc3ccccn3)cc2)ccc1O [Sulfasalazine] | < 5000 µg/mL

###

Experiment: Solvent solubility screen
Type: physicochemical
Conditions: 1-propanol, 40 °C, organic solvent or mixture, thermodynamic from solid; read-out: Approx. Solubility
metric.name: solubility

O=C(O)c1cc(/N=N/c2ccc(S(=O)(=O)Nc3ccccn3)cc2)ccc1O | < 5000 µg/mL

###

Test: Solvent solubility screen
Assay type: physicochemical
Conditions: nitromethane, 40 °C, organic solvent or mixture, thermodynamic from solid; read-out: Approx. Solubility
metric.name: solubility

O=C(O)c1cc(/N=N/c2ccc(S(=O)(=O)Nc3ccccn3)cc2)ccc1O | < 5000 µg/mL

###

Assay: Solvent solubility screen
Type: physicochemical
Conditions: tetrahydrofuran, organic solvent or mixture, thermodynamic from solid; read-out: Approx. Solubility
metric.name: solubility (µg/mL)

O=C(O)c1cc(/N=N/c2ccc(S(=O)(=O)Nc3ccccn3)cc2)ccc1O | 10000

###

Assay: Solvent solubility screen
Type: physicochemical
Details: acetonitrile, 40 °C, organic solvent or mixture, thermodynamic from solid; read-out: Approx. Solubility
metric.name: solubility

O=C(O)c1cc(/N=N/c2ccc(S(=O)(=O)Nc3ccccn3)cc2)ccc1O | < 5000 µg/mL

###

Experiment: physchem
Details: acetonitrile, organic solvent or mixture
metric.name: solubility (µg/mL)

O=C(O)c1cc(/N=N/c2ccc(S(=O)(=O)Nc3ccccn3)cc2)ccc1O [Sulfasalazine] | 300
